study.system: human A2B receptors (hA2B) (Homo sapiens)
Construct: expressed in transfected cells; host or cells: HEK-293 (HEK-A2B, G418-selected)
Sequence (P29275 1-332): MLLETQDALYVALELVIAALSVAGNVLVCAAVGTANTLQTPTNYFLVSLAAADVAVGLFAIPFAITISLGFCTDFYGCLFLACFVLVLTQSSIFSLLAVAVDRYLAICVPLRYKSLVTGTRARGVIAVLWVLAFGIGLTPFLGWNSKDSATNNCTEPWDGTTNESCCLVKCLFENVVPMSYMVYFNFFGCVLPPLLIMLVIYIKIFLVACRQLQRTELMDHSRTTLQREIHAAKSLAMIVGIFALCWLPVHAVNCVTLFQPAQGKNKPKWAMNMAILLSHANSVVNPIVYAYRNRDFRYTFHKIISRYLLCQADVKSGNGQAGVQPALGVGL
assay.comment: Radioligand binding ([125I]ABOPX / [3H]ZM241385) at human A2B receptors expressed in HEK-293 cells
details: Table 4; Ki ratio
measured.attribute: rA1/hA2B
Please reply with the number alone, leaving off any unit.

Prompt line: Which measured rA1/hA2B value corresponds to CCCn1c(=O)c2[nH]c(-c3ccc(OCC(=O)NN4C(=O)C(c5ccccc5)=C(c5ccccc5)C4=O)cc3)nc2n(CCC)c1=O ?
Response line: 3.4

Prompt line: Which measured rA1/hA2B value corresponds to CCCn1c(=O)c2[nH]c(-c3ccc(OCC(=O)NNC(=O)CCC(=O)O)cc3)nc2n(CCC)c1=O ?
Response line: 1.6

Prompt line: Which measured rA1/hA2B value corresponds to CCCn1c(=O)c2[nH]c(-c3ccc(OCC(=O)NN4C(=O)C(C)=C(C)C4=O)cc3)nc2n(CCC)c1=O ?
Response line: 0.57

Prompt line: Which measured rA1/hA2B value corresponds to CCCn1c(=O)c2[nH]c(-c3ccc(OCC(=O)NN4C(=O)CCC(c5ccccc5)C4=O)cc3)nc2n(CCC)c1=O (stereo not shown) ?
Response line: 1.0
